system-tested: SET7 (Homo sapiens)
Sequence (Q8WTS6 whole entry): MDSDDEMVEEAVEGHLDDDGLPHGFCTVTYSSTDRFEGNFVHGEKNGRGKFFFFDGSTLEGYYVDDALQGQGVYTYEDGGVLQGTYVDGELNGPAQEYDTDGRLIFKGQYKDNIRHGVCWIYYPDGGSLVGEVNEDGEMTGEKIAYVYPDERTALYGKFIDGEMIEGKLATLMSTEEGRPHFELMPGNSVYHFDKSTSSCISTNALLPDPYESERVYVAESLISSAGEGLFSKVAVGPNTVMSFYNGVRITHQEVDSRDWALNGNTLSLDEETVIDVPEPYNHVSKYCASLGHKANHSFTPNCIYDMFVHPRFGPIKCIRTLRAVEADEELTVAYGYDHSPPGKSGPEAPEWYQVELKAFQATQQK
experimental-details: AlphaLISA SET7 inhibition assay
Type: biochemical
settings: AlphaLISA assay, SET7, 100 μM; read-out: Inhibition Ratio at 100 μM/%
// rule not met strictly below 40% in inhibition at 100 µM; rule met otherwise

> print(dat)
                                   compound  classification
1  O=C(N/N=C/c1cc([N+](=O)[O-])ccc1Cl)c1ccc(O)cc1 [DC-S320]    rule not met
2  O=C(CCC(=O)N/N=C/c1cc([N+](=O)[O-])ccc1Cl)NCc1ccccc1 [DC-S314]        rule met
3  COc1ccc(-c2ccc(C=NNC(=O)c3ccc([N+](=O)[O-])cc3)o2)cc1Cl [DC-S360]    rule not met
4  COc1ccc(C=NNC(=O)c2ccc([N+](=O)[O-])cc2)c2ccccc12 [DC-S357]    rule not met
5  O=C(NN=Cc1ccccc1OCc1cccc(Br)c1)c1ccc([N+](=O)[O-])cc1 [DC-S363]    rule not met
6  O=C(NN=Cc1ccc(-c2ccccc2Cl)o1)c1ccc([N+](=O)[O-])cc1 [DC-S364]        rule met
7  O=C(NNC(=O)c1ccc([N+](=O)[O-])cc1)c1ccc(-c2ccccc2)cc1 [DC-S334]        rule met
8  O=C(NN=Cc1cc([N+](=O)[O-])ccc1N1CCCCC1)c1ccc([N+](=O)[O-])cc1 [DC-S354]    rule not met

----------
// reported inhibition at 100 µM for each item listed
system-tested: SET7 (Homo sapiens)
experimental-details: AlphaLISA SET7 inhibition assay
Assay type: biochemical
settings: AlphaLISA assay, SET7, 100 μM; read-out: Inhibition Ratio at 100 μM/%
observable: inhibition at 100 µM (%)

> print(dat)
                                query.smiles  measured.result
 1  COc1cc(OC)c(C=NNC(=O)c2ccc([N+](=O)[O-])cc2)cc1Br               39
 2  O=C(N/N=C/c1cc([N+](=O)[O-])ccc1Cl)c1ccc(-c2ccccc2)cc1               99
 3  COc1cc(/C=N/NC(=O)c2ccc(-c3ccccc3)cc2)c([N+](=O)[O-])cc1OC               -5
 4  O=C(N/N=C/c1cc([N+](=O)[O-])ccc1Cl)c1ccc(O)cc1O                9
 5  O=C(NNC(=O)c1cccc(Cl)c1)c1ccc(-c2ccccc2)cc1                1
 6  COc1ccc(C(=O)NN=Cc2ccc([N+](=O)[O-])cc2)cc1OC               10
 7  COc1ccc(C=NNC(=O)c2ccc([N+](=O)[O-])cc2)cc1               35
 8  O=C(N/N=C/c1ccc(Cl)c([N+](=O)[O-])c1)c1ccc(-c2ccccc2)cc1               44
 9  O=C(NNC(=O)c1cccc([N+](=O)[O-])c1)c1ccc(-c2ccccc2)cc1               12
10  COc1ccc2ccccc2c1C=NNC(=O)c1ccc([N+](=O)[O-])cc1               -1
11  CCOc1ccc(/C=N/NC(=O)c2ccc(-c3ccccc3)cc2)c(OCC)c1               -6
12  COc1ccc(/C=N/NC(=O)c2ccc(-c3ccccc3)cc2)c(OC)c1Br                7
13  COc1cc(C=NNC(=O)c2ccc([N+](=O)[O-])cc2)ccc1OC(C)=O               -4
14  O=C(NN=Cc1c(OC(=O)c2ccc(Cl)cc2)ccc2ccccc12)c1ccc([N+](=O)[O-])cc1                5
15  Cc1cccc(/C=N/NC(=O)c2ccc(-c3ccccc3)cc2)c1               -5
16  O=C(NN=Cc1cccc(Cl)c1)c1ccc([N+](=O)[O-])cc1               29
17  O=C(NNC(=O)c1ccccc1C(=O)O)c1ccc(-c2ccccc2)cc1              -10
18  O=C(NN=Cc1c[nH]nc1-c1ccc(Cl)cc1)c1ccc([N+](=O)[O-])cc1               17

src = paper PMC6017732
